- SYSTEM_UNDER_TEST: kinase IRAK4 (Homo sapiens (Human), UniProt Q9NWZ3)
- ASSAY_INFO: Inhibitory effects of compounds on kinase activity (fluorescence microfluidic mobility detection, competitive with ATP)
- Format: biochemical
- TEST_SETTINGS: Table 2; IRAK4 6 nM, ATP 10 μM, substrate FAM-P8 3 μM
Task for the reader: assign each of the following molecules its reported pIC50.
Here pIC50 is given on a logarithmic scale as minus log10 of the concentration in mol/L.

Enquiry: Could you tell me which pIC50 is on file for COc1cc2nn(C3CC4(CCN(C(=O)[C@H]5CC[C@H](Oc6ccc7c(c6)C(=O)N(C6CCC(=O)NC6=O)C7=O)CC5)CC4)C3)cc2cc1NC(=O)c1cccc(C(F)(F)F)n1 (stereo partly drawn) ?
Return: 7.47

Enquiry: I have this molecule here, COc1cc2nn(C3CC4(CCN(C(=O)C5CCN(c6ccc7c(c6)C(=O)N(C6CCC(=O)NC6=O)C7=O)CC5)CC4)C3)cc2cc1NC(=O)c1coc(-c2ccnc(C)c2)n1 (stereo not drawn) , and I need its recorded pIC50.
Return: 7.91

Enquiry: Can you look up the measured pIC50 of COc1cc2nn(C3CC4(CCN(C(=O)C5CCN(c6ccc7c(c6)C(=O)N(C6CCC(=O)NC6=O)C7=O)CC5)CC4)C3)cc2cc1NC(=O)c1cccc(N2CCOCC2)n1 (stereo not drawn) for me?
Return: 7.30

* * *

Hi there, I'd appreciate the recorded DC50 for every entry that follows.
- SYSTEM_UNDER_TEST: IRAK4 protein in THP-1 cells (Homo sapiens (Human), UniProt Q9NWZ3)
- Sequence (Q9NWZ3 whole entry): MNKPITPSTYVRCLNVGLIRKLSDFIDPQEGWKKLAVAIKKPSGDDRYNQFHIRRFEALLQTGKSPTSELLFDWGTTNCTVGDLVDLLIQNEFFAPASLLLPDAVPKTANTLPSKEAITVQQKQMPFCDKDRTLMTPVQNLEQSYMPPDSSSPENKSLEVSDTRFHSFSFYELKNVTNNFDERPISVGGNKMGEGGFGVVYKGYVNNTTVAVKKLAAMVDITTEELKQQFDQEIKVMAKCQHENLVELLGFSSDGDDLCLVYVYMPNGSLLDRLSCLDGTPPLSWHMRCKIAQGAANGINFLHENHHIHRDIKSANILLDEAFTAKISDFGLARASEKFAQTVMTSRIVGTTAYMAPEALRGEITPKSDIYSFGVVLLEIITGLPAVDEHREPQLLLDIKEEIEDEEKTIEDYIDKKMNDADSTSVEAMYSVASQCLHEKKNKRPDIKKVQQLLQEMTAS
- ASSAY_INFO: PROTAC-induced IRAK4 protein degradation in THP-1 cells (Western Blot)
- Type: cell-based
- TEST_SETTINGS: concentration that degraded 50% of IRAK4, Western blotting, 24 hours after administration
Answer with a number only, understood to be in nM.

Enquiry: Quick one: DC50 for COc1cc2nn(C3CC4(CCN(C(=O)C5CCN(c6ccc7c(c6)C(=O)N(C6CCC(=O)NC6=O)C7=O)CC5)CC4)C3)cc2cc1NC(=O)c1coc(-c2ccnc(C)c2)n1 (centres unmarked) [Compound I-36] ?
Return: 1.16

Enquiry: Entry under review: COc1cc2nn(C3CCN(CC(=O)N4CCN(c5cc6c(cc5F)C(=O)N(C5CCC(=O)NC5=O)C6=O)CC4)CC3)cc2cc1NC(=O)c1cccc(C(F)(F)F)n1 (centres unmarked) [II-5] . Reported DC50?
Return: 6.15

Enquiry: What value of DC50 has been reported for the following compound? COc1cc2nn(C3CC4(CCN(C(=O)C5CCN(c6cc7c(cc6F)C(=O)N(C6CCC(=O)NC6=O)C7=O)CC5)CC4)C3)cc2cc1NC(=O)c1cccc(C(F)(F)F)n1 (centres unmarked) [Compound I-8]
Return: 8.2

Enquiry: I have this compound here, CC(C)(O)c1cc2nn(C3CC4(CCN(C(=O)C5CCN(c6ccc7c(c6)C(=O)N([C@H]6CCC(=O)NC6=O)C7=O)CC5)CC4)C3)cc2cc1NC(=O)c1cccc(C(F)(F)F)n1 [Compound I-63] , and I need its recorded DC50.
Return: 2.41

Enquiry: Given the entry COc1cc2nn(C3CC4(CCN(C(=O)C5CCN(c6cc7c(cc6F)C(=O)N([C@H]6CCC(=O)NC6=O)C7=O)CC5)CC4)C3)cc2cc1NC(=O)c1cccc(C(F)(F)F)n1 [Compound I-61] , report its measured DC50.
Return: 7.62

Enquiry: Data request, read-out DC50, for COc1cc2nn(C3CCN(C(=O)CN4CCN(c5ccc6c(c5)C(=O)N(C5CCC(=O)NC5=O)C6=O)CC4)CC3)cc2cc1NC(=O)c1cccc(C(F)(F)F)n1 (centres unmarked) [II-4]
Return: 12.4

Enquiry: What measured DC50 goes with O=C1CCC(N2C(=O)c3ccc(N4CCC(C(=O)N5CCC6(CC5)CC(n5cc7cc(NC(=O)c8cccc(C(F)(F)F)n8)c(N8CCOCC8)cc7n5)C6)CC4)cc3C2=O)C(=O)N1 (centres unmarked) [Compound I-9] ?
Return: 12

Enquiry: I'd like to know its DC50. The compound in question is COc1cc2nn(C3CC4(CCN(C5CC6(CCN(c7ccc8c(c7)C(=O)N(C7CCC(=O)NC7=O)C8=O)CC6)C5)CC4)C3)cc2cc1NC(=O)c1cccc(C(F)(F)F)n1 (centres unmarked) [Compound I-24]
Return: 15.3

Enquiry: Consider the compound shown here: COc1cc2nn(C3CC4(CCN(C(=O)C5CCN(c6ccc7c(c6)C(=O)N([C@@H]6CCC(=O)NC6=O)C7=O)CC5)CC4)C3)cc2cc1NC(=O)c1cccc(C(F)(F)F)n1 [Compound I-66] What is its recorded DC50?
Return: 3.14

Enquiry: Given the entry COc1cc2nn(C3CCN(C4CC5(CCN(c6ccc7c(c6)C(=O)N(C6CCC(=O)NC6=O)C7=O)CC5)C4)CC3)cc2cc1NC(=O)c1cccc(C(F)(F)F)n1 (centres unmarked) [II-12] , report its measured DC50.
Return: 20.5

* * *

- SYSTEM_UNDER_TEST: IRAK4 protein in THP-1 cells (Homo sapiens (Human))
- ASSAY_INFO: PROTAC-induced IRAK4 protein degradation in THP-1 cells (Western Blot)
- Format: cell-based
- TEST_SETTINGS: concentration that degraded 50% of IRAK4, Western blotting, 24 hours after administration
Flag rule - DC50 less than 8 nM flags 1; the remaining entries get 0.

Enquiry: Answer whether the compound COc1cc2nn(C3CC4(CCN(C(=O)[C@H]5CC[C@H](CNc6ccc7c(c6)C(=O)N(C6CCC(=O)NC6=O)C7=O)CC5)CC4)C3)cc2cc1NC(=O)c1cccc(C(F)(F)F)n1 (some centres unmarked) has DC50 strictly less than 8 nM
Return: 1

Enquiry: Hello, I'm reviewing records and need to know if DC50 of COc1cc2nn(C3CC4(CCN(C(=O)C5(F)CCN(c6ccc7c(c6)C(=O)N(C6CCC(=O)NC6=O)C7=O)CC5)CC4)C3)cc2cc1NC(=O)c1cccc(C(F)(F)F)n1 (centres unmarked) is below 8 nM. Could you check?
Return: 0

Enquiry: In plain terms, does COc1cc2nn(C3CC4(CCN(C(=O)C5CCN(c6ccc7c(c6)C(=O)N([C@@H]6CCC(=O)NC6=O)C7=O)CC5)CC4)C3)cc2cc1NC(=O)c1cccc(C(F)(F)F)n1 [Compound I-58] come in under 8 nM for DC50?
Return: 1

Enquiry: Strictly below 8 nM: is that where DC50 of COc1cc2nn(C3CCN(C(=O)C4CCN(Cc5ccc6c(c5)C(=O)N(C5CCC(=O)NC5=O)C6=O)CC4)CC3)cc2cc1NC(=O)c1cccc(C(F)(F)F)n1 (centres unmarked) sits?
Return: 0

* * *

- SYSTEM_UNDER_TEST: IRAK4 protein in THP-1 cells (Homo sapiens (Human), UniProt Q9NWZ3)
- ASSAY_INFO: PROTAC-induced IRAK4 protein degradation in THP-1 cells (Western Blot)
- Format: cell-based
- TEST_SETTINGS: concentration that degraded 50% of IRAK4, Western blotting, 24 hours after administration
METRIC_NAME: DC50 (µM)
Express your answer in µM, writing the number without its unit.

Enquiry: Fill blank: measured DC50 of the compound COc1cc2nn(C3CC4(CCN(C5CCN(C(=O)c6ccc7c(c6)C(=O)N(C6CCC(=O)NC6=O)C7=O)CC5)CC4)C3)cc2cc1NC(=O)c1cccc(C(F)(F)F)n1 (stereo not drawn) is ____.
Return: 0.149

Enquiry: What measured DC50 goes with COc1cc2nn(C3CC4(C3)CN(C(=O)C3CCN(c5ccc6c(c5)C(=O)N(C5CCC(=O)NC5=O)C6=O)CC3)C4)cc2cc1NC(=O)c1cccc(C(F)(F)F)n1 (stereo not drawn) ?
Return: 0.0126

* * *

Could you please report measured IC50 for the items listed next?
- SYSTEM_UNDER_TEST: kinase IRAK4 (Homo sapiens (Human))
- ASSAY_INFO: Inhibitory effects of compounds on kinase activity (fluorescence microfluidic mobility detection, competitive with ATP)
- Format: biochemical
- TEST_SETTINGS: Table 2; IRAK4 6 nM, ATP 10 μM, substrate FAM-P8 3 μM
Only the number, expressed in nM, is required.

Enquiry: What IC50 value was documented for this molecule, COc1cc2nn(C3CC4(CCN(C(=O)C5CCN(c6ccc7c(c6)C(=O)N(C6CCC(=O)NC6=O)C7=O)CC5)CC4)C3)cc2cc1NC(=O)c1cnn2ccc(N3C[C@H]4C[C@@H]3CO4)nc12 (stereo partly drawn) ?
Return: 17

Enquiry: Find the recorded IC50 belonging to COc1cc2nn(C3CCN(C(C)C(=O)N4CCN(c5ccc6c(c5)C(=O)N(C5CCC(=O)NC5=O)C6=O)CC4)CC3)cc2cc1NC(=O)c1cccc(C(F)(F)F)n1 (stereo not drawn) and report it.
Return: 7.45

Enquiry: What IC50 value was documented for this molecule, COc1cc2nn(C3CC4(CCN(C(=O)C5CCN(c6ccc7c(c6)C(=O)N(C6CCC(=O)NC6=O)C7=O)CC5)CC4)C3)cc2cc1NC(=O)c1cnn2ccc(N3CCN(C)CC3)nc12 (stereo not drawn) ?
Return: 13.4
